experiment: self-splicing fitness, log relative to wild type (ln ratio); higher = more splicing; Tetrahymena group I intron in knt gene, E. coli kanamycin selection, DiMSum; sequences stand for … in CUCUCU…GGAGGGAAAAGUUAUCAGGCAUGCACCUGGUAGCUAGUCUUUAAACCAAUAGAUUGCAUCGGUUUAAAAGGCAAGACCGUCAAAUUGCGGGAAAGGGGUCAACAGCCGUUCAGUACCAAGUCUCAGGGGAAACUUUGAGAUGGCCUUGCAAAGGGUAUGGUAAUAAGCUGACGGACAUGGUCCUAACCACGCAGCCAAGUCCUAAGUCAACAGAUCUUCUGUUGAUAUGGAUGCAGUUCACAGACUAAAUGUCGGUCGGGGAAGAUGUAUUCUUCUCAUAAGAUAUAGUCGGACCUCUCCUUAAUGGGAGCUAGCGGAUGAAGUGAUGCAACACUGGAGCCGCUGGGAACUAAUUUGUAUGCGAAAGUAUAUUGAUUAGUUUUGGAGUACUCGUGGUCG; conditions: 30 °C;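 further: selection with 25 µg/mL kanamycin versus none on LB agar overnight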
Entry flag: satisfied if self-splicing fitness (ln) reaches -3; not satisfied if it does not.

{"columns": ["biopolymerSequence", "qualitativeLabel"],
 "data": [
  ["AGAUAGCAAUAUUACGAAAU", "satisfied"],
  ["UUUCAGCAAUAUUACGGCCA", "satisfied"],
  ["CGAAAGCAAUAUUACGGGUA", "satisfied"],
  ["UAAAAGCAAUAUUACGGCUC", "satisfied"],
  ["AAACAGCAAUAUUACGUACC", "satisfied"],
  ["UGUUAGCAAUAUUACGCGAC", "not satisfied"],
  ["GGCUAGCAAUAUUACGGAAC", "satisfied"],
  ["AUUGAGCAAUAUUACGCACA", "satisfied"],
  ["ACUGAGCAAUAUUACGUGCU", "not satisfied"],
  ["CCCCAGCAAUAUUACGUAUU", "not satisfied"],
  ["CCAUAGCAAUAUUACGUCUC", "not satisfied"],
  ["CGAUAGCAAUAUUACGUAAA", "satisfied"],
  ["UAGAAGCAAUAUUACGGACU", "satisfied"],
  ["UAUAAGCAAUAUUACGACAC", "satisfied"],
  ["GAACAGCAAUAUUACGUGUC", "not satisfied"],
  ["GGUAAGCAAUAUUACGAGCA", "satisfied"],
  ["CUGAAGCAAUAUUACGAGGU", "not satisfied"],
  ["GUUCAGCAAUAUUACGUCUC", "satisfied"],
  ["CCCUAGCAAUAUUACGGGUC", "not satisfied"],
  ["GGUAAGCAAUAUUACGUGCG", "satisfied"],
  ["ACGGAGCAAUAUUACGAGUA", "satisfied"],
  ["GAAGAGCAAUAUUACGGGCA", "satisfied"],
  ["GAUCAGCAAUAUUACGAGUU", "satisfied"],
  ["UCCAAGCAAUAUUACGGCAU", "not satisfied"],
  ["UGGGAGCAAUAUUACGUUAA", "satisfied"],
  ["CUUGAGCAAUAUUACGGAAG", "satisfied"],
  ["GCCCAGCAAUAUUACGGGAC", "not satisfied"],
  ["GUUUAGCAAUAUUACGAUUC", "satisfied"],
  ["GAUUAGCAAUAUUACGGUUU", "satisfied"],
  ["GAUUAGCAAUAUUACGGAAU", "satisfied"],
  ["CAACAGCAAUAUUACGACUA", "satisfied"],
  ["UUCCAGCAAUAUUACGUAGA", "satisfied"],
  ["AGGCAGCAAUAUUACGGCAG", "satisfied"],
  ["GUUAAGCAAUAUUACGACUA", "satisfied"],
  ["UGGCAGCAAUAUUACGUCCA", "satisfied"],
  ["UGGUAGCAAUAUUACGAGGU", "satisfied"],
  ["AAAGAGCAAUAUUACGCCAC", "not satisfied"],
  ["CUAGAGCAAUAUUACGUAUU", "not satisfied"],
  ["ACGAAGCAAUAUUACGGGUC", "not satisfied"],
  ["UCGAAGCAAUAUUACGCAGG", "not satisfied"],
  ["GCAAAGCAAUAUUACGCCAU", "satisfied"],
  ["CAUUAGCAAUAUUACGACCG", "satisfied"],
  ["UUAUAGCAAUAUUACGUUAG", "satisfied"],
  ["CUUCAGCAAUAUUACGGUUA", "satisfied"],
  ["AGGAAGCAAUAUUACGCGUC", "not satisfied"],
  ["GAAGAGCAAUAUUACGAUUC", "not satisfied"],
  ["CUCCAGCAAUAUUACGAUUG", "satisfied"],
  ["GAAAAGCAAUAUUACGGUAC", "satisfied"],
  ["GACGAGCAAUAUUACGUGAU", "not satisfied"],
  ["GCCAAGCAAUAUUACGCUGU", "satisfied"],
  ["GCGAAGCAAUAUUACGGUGG", "not satisfied"],
  ["UGACAGCAAUAUUACGAUGA", "satisfied"],
  ["AACGAGCAAUAUUACGUUAA", "not satisfied"],
  ["AACAAGCAAUAUUACGCAUC", "satisfied"],
  ["AGAUAGCAAUAUUACGAGUC", "satisfied"],
  ["UUAUAGCAAUAUUACGGUUU", "satisfied"],
  ["CCAGAGCAAUAUUACGUCGG", "not satisfied"],
  ["AGGUAGCAAUAUUACGGUUU", "satisfied"],
  ["GAGGAGCAAUAUUACGUGAG", "not satisfied"],
  ["AUGUAGCAAUAUUACGCCUC", "satisfied"],
  ["GAUUAGCAAUAUUACGUCAA", "satisfied"],
  ["AGCCAGCAAUAUUACGAUAC", "not satisfied"],
  ["GGACAGCAAUAUUACGAAAA", "satisfied"],
  ["AUAGAGCAAUAUUACGACUG", "satisfied"],
  ["CUUCAGCAAUAUUACGUAGU", "not satisfied"]
]}
